# target: TPβ (Homo sapiens, UniProt P21731)
# Construct: expressed in transfected cells
# experiment-notes: U46619-induced [Ca2+]i mobilization in HEK.TPβ cells
# Format: cell-based
# condition-description: antagonist 10 μM; 1 μM U46619; % of agonist-induced response in vehicle-treated cells; read-out: Percentage of Control, TPβ, 10 μM
Entries annotated with measured remaining activity at 10 µM
measurement-kind: remaining activity at 10 µM (%)

COc1ccc(-c2cccc(Oc3ccc(-c4cn[nH]c4)cc3S(=O)(=O)NC(=O)NC(C)(C)C)c2)cc1 [NTP18] ... 22.6
COc1ccc(-c2cccc(Oc3cc[n+]([O-])cc3S(=O)(=O)NC(=O)NC(C)(C)C)c2)cc1 [NTP41] ... 18.8
COc1ccc(-c2cccc(Oc3ccc(-c4c(C)noc4C)cc3S(=O)(=O)NC(=O)NC(C)(C)C)c2)cc1 [NTP19] ... 64.5
COc1ccc(-c2cccc(Oc3ccc(F)cc3S(=O)(=O)NC(=O)NC(C)(C)C)c2)cc1 [NTP8] ... 14.6
COc1ccc(-c2cccc(Oc3ccc(-c4ccncc4)cc3S(=O)(=O)NC(=O)NC(C)(C)C)c2)cc1 [NTP29] ... 94.6
COc1ccc(-c2cccc(Oc3ccc(C(=O)Nc4ccccc4)cc3S(=O)(=O)NC(=O)NC(C)(C)C)c2)cc1 [NTP25] ... 14.8
COc1ccc(-c2cccc(Oc3ccc(N)cc3S(=O)(=O)NC(=O)NC(C)(C)C)c2)cc1 [NTP1] ... 102
CNC(=O)c1ccc(Oc2cccc(-c3ccc(OC)cc3)c2)c(S(=O)(=O)NC(=O)NC(C)(C)C)c1 [NTP10] ... 54.7

----------
# target: TPα (Homo sapiens, UniProt P21731)
# Construct: expressed in transfected cells
# Sequence (P21731 1-343): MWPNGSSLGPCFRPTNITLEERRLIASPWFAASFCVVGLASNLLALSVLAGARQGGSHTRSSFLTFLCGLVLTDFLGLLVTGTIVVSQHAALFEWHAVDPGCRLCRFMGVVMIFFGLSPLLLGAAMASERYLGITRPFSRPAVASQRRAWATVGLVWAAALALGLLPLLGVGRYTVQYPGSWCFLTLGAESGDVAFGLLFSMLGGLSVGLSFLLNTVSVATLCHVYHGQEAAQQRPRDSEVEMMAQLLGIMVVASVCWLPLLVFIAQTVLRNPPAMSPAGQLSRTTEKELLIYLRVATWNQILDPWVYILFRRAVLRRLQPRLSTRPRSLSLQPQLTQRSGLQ
# experiment-notes: U46619-induced [Ca2+]i mobilization in HEK.TPα cells
# Format: cell-based
# condition-description: HEK.TPα cells; 1 μM U46619; Table 2; read-out: IC50 data for U46619-mediated [Ca2+]i mobilization, TPα
Note to self: use Condition met only for IC50 readings below 0.2 µM; a reading exactly at 0.2 µM still gets Condition not met.

COC(=O)c1ccc(-c2cccc(Oc3ccc([N+](=O)[O-])cc3S(=O)(=O)NC(=O)NC(C)(C)C)c2)cc1 ... Condition met
COc1cccc(Oc2ccc([N+](=O)[O-])cc2S(=O)(=O)NC(=O)NC(C)(C)C)c1 [Compound 9h, reference compound] ... Condition not met
CCCCCNC(=O)NS(=O)(=O)c1cc([N+](=O)[O-])ccc1Oc1cccc(-c2ccc(C)cc2)c1 ... Condition not met
Cc1ccc(-c2cccc(Oc3ccc([N+](=O)[O-])cc3S(=O)(=O)NC(=O)NC(C)(C)C)c2)cc1 ... Condition met
CCCCCNC(=O)NS(=O)(=O)c1cc([N+](=O)[O-])ccc1Oc1cccc(-c2ccc(OC)cc2)c1 ... Condition not met
CC(C)(C)NC(=O)NS(=O)(=O)c1cc([N+](=O)[O-])ccc1Oc1cccc(-c2ccc(C(F)(F)F)cc2)c1 ... Condition met
CC(=O)c1ccc(-c2cccc(Oc3ccc([N+](=O)[O-])cc3S(=O)(=O)NC(=O)NC(C)(C)C)c2)cc1 ... Condition met
COc1ccc(-c2cccc(Oc3ccc([N+](=O)[O-])cc3S(=O)(=O)NC(=O)NC(C)(C)C)c2)cc1 ... Condition met
CC(C)(C)NC(=O)NS(=O)(=O)c1cc([N+](=O)[O-])ccc1Oc1cccc(I)c1 ... Condition not met
